Data origin, for the record: paper PMC11855827

Test system: T. circumcincta resistant strain
Assay: Egg hatch inhibition (EHI), ovicidal effect
Set-up: species or system Teladorsagia circumcincta
Conditions: resistant strain, 100 μM; NE = Not Effective at 100 μM; control thiabendazole 0.1 µg/mL
Consider the following molecules and their measured T. circumcincta EHI (%) readings.
Please reply with the bare figure in % and do not write the unit itself.

Consider the worked cases shown below.
O=C(/C=C/c1ccccc1)c1ccccc1 [Trans-chalcone]	99.9
CCOc1ccc2nc3cc(N)ccc3c(N)c2c1 [Ethacridine lactate monohydrate, reference compound]	0.0

// query # T. circumcincta EHI (%) lookup, item CCOc1ccc2nc3cc(N)ccc3c(N)c2c1 [Ethacridine lactate, reference compound]
// result 4.0

// query # T. circumcincta EHI (%) lookup, item CC1(C)[C@H](OC(=O)c2ccccc2)CC[C@]2(C)C3=C([C@@H](O)C[C@@H]12)[C@@]1(C)CC[C@@]2(C)CC[C@@](C)(COC(=O)c4ccccc4)C[C@H]2[C@]1(C)CC3
// result 0.0

###

Consider the following molecules and their measured Percentage of motility inhibition 0 h readings.
Tested on: C. elegans
Conditions: Table S2, C. elegans SS assay, 110 μM, 0 h, averages of 4 data points
Please reply with the bare figure in % and do not write the unit itself.

C[C@@H]1O[C@@H](O[C@H]2[C@H](OC(=O)[C@]34CCC(C)(C)C[C@H]3C3=CC[C@@H]5[C@@]6(C)C[C@H](O)[C@H](O[C@@H]7O[C@H](CO)[C@@H](O)[C@H](O)[C@H]7O)[C@](CO)(C(=O)O)[C@@H]6CC[C@@]5(C)[C@]3(C)C[C@H]4O)OC[C@H](O)[C@@H]2O)[C@H](O)[C@H](O)[C@H]1O[C@@H]1OC[C@@H](O)[C@H](O[C@@H]2OC[C@](O)(CO)[C@H]2O)[C@H]1O	0
Cc1ccc2nc(C)ccc2c1	0
CC(=O)O[C@@H]1C[C@]23C[C@@](C)(O)[C@H](CC[C@H]2[C@@](C)(O)[C@@H]2[C@@H]4O[C@@H]4C(C)(C)[C@@]12O)[C@H]3O	4

// query # returns recorded Percentage of motility inhibition 0 h (system: C. elegans) for CC1(C)[C@@H](O[C@H]2O[C@H](C(=O)O)[C@@H](O)[C@H](O)[C@H]2O[C@@H]2O[C@H](C(=O)O)[C@@H](O)[C@H](O)[C@H]2O)CC[C@]2(C)[C@H]3C(=O)C=C4[C@@H]5C[C@@](C)(C(=O)O)CC[C@]5(C)CC[C@@]4(C)[C@]3(C)CC[C@@H]12 [Ammonium glycyrrhizinate]
// result 20

// query # returns recorded Percentage of motility inhibition 0 h (system: C. elegans) for COc1ccc(-c2cc(=O)c3c(O)c(OC)c(OC)c(OC)c3o2)cc1OC
// result 26

###

System: C. elegans
Assay: microbe, parasite or virus in culture
Conditions: Caenorhabditis elegans, 24 h, read-out: Percentage of motility inhibition 24 h, Table S2, C. elegans SS assay, 110 μM, 24 h, averages of 4 data points
Consider the following compounds and their measured inhibition at 110 µM readings.
Please reply with the bare figure in % and do not write the unit itself.

CC(=O)O[C@@H]1[C@H]2[C@H]3C[C@H]4C5=Nc6ccccc6[C@]51C[C@@H]2N4[C@H](C)C3C=O (stereo partly shown)	0
COc1cc2cc(c1Cl)N(C)C(=O)CC(O)C1(C)OC1C(C)C1CC(O)(NC(=O)O1)C(OC)/C=C/C=C(\C)C2 (stereo not shown)	0
O=c1cc(-c2ccc(O)cc2)oc2cc(O[C@@H]3O[C@H](CO)[C@@H](O)[C@H](O)[C@H]3O)c([C@@H]3O[C@H](CO)[C@@H](O)[C@H](O)[C@H]3O)c(O)c12	1
Cc1coc2c1C(=O)C(=O)c1c-2ccc2c(C)cccc12	3
CC(C)/N=c1\cc2n(-c3ccc(Cl)cc3)c3ccccc3nc-2cc1Nc1ccc(Cl)cc1	7
CCCCCCCCCC(=O)O[C@H]1CC[C@H]2[C@@H]3CCC4=CC(=O)CC[C@@H]4[C@H]3CC[C@]12C [Nandrolone decanoate]	31
NC(=O)Cc1c[nH]c2ccccc12 [Indole‐3‐acetamide]	0
CN1CCc2cc3c(cc2C1O)OCO3 (stereo not shown) [Hydrastinine]	4
C[C@@H](c1ncncc1F)[C@](O)(Cn1cncn1)c1ccc(F)cc1F	0
C[C@H](CCC(=O)O)[C@H]1CC[C@H]2[C@@H]3[C@H](O)C[C@@H]4C[C@H](O)CC[C@]4(C)[C@H]3CC[C@]12C	5

// query # inhibition at 110 µM lookup, item O=C(C1CCCCC1)N1CC(=O)N2CCc3ccccc3C2C1 (stereo not shown)
// result 0

// query # inhibition at 110 µM lookup, item C[C@H](Cn1cnc2c(N)ncnc21)OCP(=O)(O)O
// result 16

###

Test system: C. elegans
Conditions: 24 h, 110 µM
Use True when the recorded Percentage of motility inhibition 24 h is no lower than 10%; use False when it is lower.

Cc1ccc(C(C)C)cc2c(C)ccc1-2	True
O=C(O)[C@H]1O[C@@H](Oc2cc3oc(-c4ccccc4)cc(=O)c3c(O)c2O)[C@H](O)[C@@H](O)[C@@H]1O	True

// query Is Percentage of motility inhibition 24 h for CC(C)=CCC/C(C)=C/CC/C(C)=C/CC/C=C(\C)CC/C=C(\C)CCC=C(C)C at or above 10%?
// result True

###

System: C. elegans
Assay: microbe, parasite or virus in culture
Details: Caenorhabditis elegans, 24 h, read-out: Percentage of motility inhibition 24 h, Table S2, C. elegans SS assay, 110 μM, 24 h, averages of 4 data points
Measured Metric: inhibition at 110 µM (%)
Please reply with the bare figure in % and do not write the unit itself.

Consider the worked cases shown below.
CCCCN(CCCC)CC(O)c1cc(Cl)cc2c1-c1ccc(Cl)cc1/C2=C/c1ccc(Cl)cc1 (stereo not shown)	0
CC(C)(C)NC(=O)[C@@H]1C[C@@H]2CCCC[C@@H]2CN1C[C@@H](O)[C@H](Cc1ccccc1)NC(=O)[C@H](CC(N)=O)NC(=O)c1ccc2ccccc2n1	0
CC1=C[C@]23C(=O)[C@@H](C=C(CO)[C@@H](O)[C@]2(O)[C@H]1O)[C@H]1[C@@H](C[C@H]3C)C1(C)C	19

// query # inhibition at 110 µM lookup, item CC(C)[C@@H]1CC[C@@H](C)CC1=O
// result 17

// query # inhibition at 110 µM lookup, item C=C[C@@]1(C)CC(=O)[C@]2(O)[C@@]3(C)[C@@H](O)CCC(C)(C)[C@@H]3[C@H](O)[C@H](OC(C)=O)[C@@]2(C)O1
// result 2

// query # inhibition at 110 µM lookup, item COc1cccc(N2CCN(C3=Nc4c(F)cccc4[C@H](CC(=O)O)N3c3cc(C(F)(F)F)ccc3OC)CC2)c1
// result 0

// query # inhibition at 110 µM lookup, item CNCc1ccccc1
// result 4

###

Consider the following compounds and their measured Percentage of motility inhibition 0 h readings.
Tested on: C. elegans
Conditions: Table S2, C. elegans SS assay, 110 μM, 0 h, averages of 4 data points

Consider the worked cases shown below.
CO[C@@]1(NC(=O)CSCC#N)C(=O)N2C(C(=O)[O-])=C(CSc3nnnn3C)CS[C@@H]21.[Na+] [Cefmetazole (sodium)]	7%
COc1cc(O)c2c(=O)cc(-c3ccc(OC)c(OC)c3)oc2c1 [7,3',4'‐Tri‐O‐methylluteolin]	13%
CC(=O)OC/C1=C\[C@H]2[C@@H](OC(=O)/C=C/c3ccccc3)[C@@H](C)C[C@]2(OC(C)=O)C(=O)/C(C)=C/[C@@H]2[C@H](CC1)C2(C)C [Euphorbia factor L7a]	21%
C[C@@H]1CC[C@]2(C(=O)O)CC[C@]3(C)C(=CC[C@@H]4[C@@]5(C)CC[C@H](O)[C@](C)(C(=O)O)[C@@H]5CC[C@]43C)[C@@H]2[C@]1(C)O [Ilexgenin A]	27%
CCC1=C[C@@H]2CN3CCc4c([nH]c5ccccc45)[C@@](C(=O)OC)(C2)[C@@H]13 [Catharanthine]	0%
COc1ccc(OCc2ccc(COc3c(Cl)cccc3Cl)cc2)c(Cl)c1 [Pocapavir]	29%
COc1c(O[C@@H]2O[C@H](CO[C@@H]3OC[C@@H](O)[C@H](O)[C@H]3O)[C@@H](O)[C@H](O)[C@H]2O)cc2occ(-c3ccc(O)cc3)c(=O)c2c1O [Tectorigenin 7‐O‐Xylosyl Glucoside]	0%
CCOC(=O)NCCCC(=O)NCCc1ccccc1 [Santacruzamate A]	0%
CN1CCN(c2ccc(N3C[C@H](CO)OC3=O)cc2F)C=N1 [Delpazolid]	2%
C=C(C)[C@@H]1CC[C@]2(C)[C@H](CC=C3[C@@H]4[C@@H](C)[C@H](C)CC[C@]4(C)CC[C@]32C)[C@@]1(C)CCC(=O)O [Roburic acid]	11%

// query # Percentage of motility inhibition 0 h lookup, item C[C@H]1CC[C@@H]2N(C1)C[C@H]1[C@@H]3C[C@H]4[C@@H](CC(=O)[C@H]5C[C@@H](O)CC[C@@]54C)[C@@H]3CC[C@H]1[C@]2(C)O [Sipeimine]
// result 0%

// query # Percentage of motility inhibition 0 h lookup, item CC(C)=CCC[C@](C)(O)[C@@H]1CC=C(C)CC1 [alpha-Bisabolol]
// result 1%

// query # Percentage of motility inhibition 0 h lookup, item C[C@H]1[C@H]2[C@H](O[C@@H]3O[C@H](CO)[C@@H](O)[C@H](O)[C@H]3O)OC=C(C(=O)O)[C@H]2C[C@@H]1O [8-Epiloganic acid]
// result 4%
